Just for reference, patent US20240376085A1 is where these values come from.

Target: IL-17A : IL-17RA binding (Homo sapiens, UniProt Q16552, K93Q)
Construct: Name: IL-17A-Flag
Sequence (Q16552 with tags, fused parts or gaps K93Q): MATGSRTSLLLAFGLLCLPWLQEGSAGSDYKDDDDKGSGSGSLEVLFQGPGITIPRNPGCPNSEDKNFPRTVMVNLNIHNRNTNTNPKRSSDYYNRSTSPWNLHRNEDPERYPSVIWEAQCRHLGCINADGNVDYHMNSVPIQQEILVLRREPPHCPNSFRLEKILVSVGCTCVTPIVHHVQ
Assay: IL-17A(FLAG-tagged):IL-17RA(His-tagged) binding disruption Eu-HTRF assay, Protocol 1
Details: FLAG-IL-17A 2.5 nM at 2x final concentration; average if tested more than once
RECORDED METRIC: IC50

query: Tell me the measured IC50 of C[C@@H](OC[C@H](NC(=O)c1nonc1C1CC1)c1nc2ccc([C@H](NC(=O)CC3CC(F)(F)C3)C3CC3)cc2[nH]1)C(F)(F)F (relative stereo) , please.
result: < 50 nM

query: Tell me the measured IC50 of Cn1nccc1C(=O)N[C@H](c1nc2cc(C(NC(=O)CCC(F)(F)F)C3CCC3)ccc2[nH]1)C1CCC(F)(F)CC1 (single isomer, unassigned) [Example 42] , please.
result: > 100 nM

query: Tell me the measured IC50 of C[C@H](NC(=O)CCC(F)(F)F)c1ccc2[nH]c([C@@H](NC(=O)c3ccnn3CCC(F)(F)F)C3CCC(F)(F)CC3)nc2c1 , please.
result: > 100 nM

====

Target: IL-17A : IL-17RA binding (Homo sapiens, UniProt Q16552, K93Q)
Construct: Name: IL-17A-Flag
Experiment: IL-17A(FLAG-tagged):IL-17RA(His-tagged) binding disruption Eu-HTRF assay, Protocol 1
Settings: FLAG-IL-17A 2.5 nM at 2x final concentration; average if tested more than once
RECORDED METRIC: IC50

Guide cases for IC50, answers given:
| COMPOUND | RECORDED METRIC | RESULT |
| --- | --- | --- |
| CC(C)(O)c1nonc1C(=O)N[C@@H](COC(C)(C)C(F)(F)F)c1nc2cc([C@H](NC(=O)CC3CC(F)(F)C3)C3CC3)ccc2[nH]1 [Example 168] | IC50 | 50 to 100 nM |
| C[C@@H](NC(=O)CCC(F)(F)F)c1ccc2[nH]c([C@@H](NC(=O)CC3CC3(F)F)C3CCC(F)(F)CC3)nc2c1 (single isomer, unassigned) [Example 108] | IC50 | > 100 nM |

Attention now turns to another entry.
query: Tell me the measured IC50 of Cc1nonc1C(=O)N[C@H](c1nc2cc([C@@H](C)NC(=O)CCC(F)(F)F)ccc2[nH]1)[C@@H]1CCCC(F)(F)C1 [Example 264] , please.
result: < 50 nM

====

Molecular target: IL-17A : IL-17RA binding (Homo sapiens, UniProt Q16552, K93Q)
Construct: Name: IL-17A-Flag
Test: IL-17A(FLAG-tagged):IL-17RA(His-tagged) binding disruption Eu-HTRF assay, Protocol 1
Settings: FLAG-IL-17A 2.5 nM at 2x final concentration; average if tested more than once
pIC50: −log10 of the molar value.
We begin with a simple list: items and their reported pIC50.

Guide cases for pIC50, answers given:
| MOLECULE | pIC50 |
| --- | --- |
| C[C@@H](NC(=O)CCC(F)(F)F)c1ccc2[nH]c([C@@H](NC(=O)c3cnnn3CC3CC3)C3CCC(F)(F)CC3)nc2c1 | < 7.00 |
| C[C@@H](NC(=O)CCC(F)(F)F)c1ccc2[nH]c([C@@H](NC(=O)c3ccn(CCC(F)(F)F)n3)C3CCC(F)(F)CC3)nc2c1 | < 7.00 |
| Cc1nonc1C(=O)N[C@@H](COC(C)(C)C(F)(F)F)c1nc2ccc([C@H](NC(=O)CC3CC(F)(F)C3)C3CC3)cc2[nH]1 (relative stereo) | > 7.30 |
| CC(C)c1nocc1C(=O)N[C@H](c1nc2cc([C@@H](C)NC(=O)CCC(F)(F)F)ccc2[nH]1)C1CCC(F)(F)CC1 | > 7.30 |
| Cc1nonc1C(=O)N[C@H](c1nc2ccc([C@H](NC(=O)CC3CC(F)(F)C3)C3CC3)cc2[nH]1)[C@@H]1CCCCO1 (relative stereo) | 7.00 to 7.30 |

query: Tell me the measured pIC50 of C[C@@H](NC(=O)CCC(F)(F)F)c1ccc2nc([C@@H](NC(=O)c3cn(CC(F)(F)F)nc3C3CC3)C3CCC(F)(F)CC3)[nH]c2c1 , please.
result: < 7.00

query: Tell me the measured pIC50 of C[C@@H](NC(=O)CCC(F)(F)F)c1ccc2[nH]c([C@@H](NC(=O)c3ncnn3CC3CC3)C3CCC(F)(F)CC3)nc2c1 , please.
result: 7.00 to 7.30

query: Tell me the measured pIC50 of CC(C)n1nccc1C(=O)N[C@H](c1nc2ccc([C@H](NC(=O)CC3CC(F)(F)C3)C3CC3)cc2[nH]1)C1CCCCO1 (single isomer, unassigned) , please.
result: < 7.00

query: Tell me the measured pIC50 of Cc1nonc1C(=O)N[C@H](c1nc2ccc([C@H](NC(=O)CC3CC(F)(F)C3)C3CC3)cc2[nH]1)[C@H]1CCCC(F)(F)C1 , please.
result: > 7.30

query: Tell me the measured pIC50 of C[C@@H](NC(=O)CCC(F)(F)F)c1ccc2[nH]c([C@@H](NC(=O)c3coc(CCC(F)(F)F)n3)C3CCC(F)(F)CC3)nc2c1 , please.
result: < 7.00

query: Tell me the measured pIC50 of [2H]C([2H])([2H])n1nccc1C(=O)N[C@@H](COC(C)(C)C(F)(F)F)c1nc2cc([C@H](NC(=O)CC3CC(F)(F)C3)C3CC3)ccc2[nH]1 , please.
result: 7.00 to 7.30

query: Tell me the measured pIC50 of CC(CC(=O)N[C@@H](c1ccc2nc([C@H](CC(C)(C)C(F)(F)F)NC(=O)c3nonc3C3CC3)[nH]c2c1)C1CC1)C(F)(F)F (single isomer, unassigned) [Example 182] , please.
result: > 7.30

====

Target: IL-17A : IL-17RA binding (Homo sapiens, UniProt Q16552, K93Q)
Construct: Name: IL-17A-Flag
Assay: IL-17A(FLAG-tagged):IL-17RA(His-tagged) binding disruption Eu-HTRF assay, Protocol 1
Settings: FLAG-IL-17A 2.5 nM at 2x final concentration; average if tested more than once
pIC50: −log10 of the molar value.
We begin with a simple list: items and their reported pIC50.

Guide cases for pIC50, answers given:
| COMPOUND | SYSTEM UNDER TEST | pIC50 |
| --- | --- | --- |
| CC(C)n1nccc1C(=O)N[C@@H](c1nc2ccc([C@H](NC(=O)CC3CC(F)(F)C3)C3CC3)cc2[nH]1)[C@@H]1CCCCO1 (relative stereo) | IL-17A : IL-17RA binding (Homo sapiens, UniProt Q16552, K93Q) | < 7.00 |
| CC(NC(=O)CCC(F)(F)F)c1ccc2nc([C@H](CC(C)(C)C(F)(F)F)NC(=O)c3ccnn3CCC(F)(F)F)[nH]c2c1 (single isomer, unassigned) [Example 229] | IL-17A : IL-17RA binding (Homo sapiens, UniProt Q16552, K93Q) | < 7.00 |
| CC(C)CC(NC(=O)CCC(F)(F)F)c1ccc2[nH]c([C@@H](NC(=O)c3ccnn3C)C3CCC(F)(F)CC3)nc2c1 (single isomer, unassigned) [Example 49] | IL-17A : IL-17RA binding (Homo sapiens, UniProt Q16552, K93Q) | < 7.00 |
| C[C@@H](NC(=O)CCC(F)(F)F)c1ccc2[nH]c([C@@H](NC(=O)c3ccnn3C)C3CCC(F)(F)CC3)nc2c1 | IL-17A : IL-17RA binding (Homo sapiens, UniProt Q16552, K93Q) | < 7.00 |
| CC(C)n1nccc1C(=O)N[C@H](c1nc2ccc([C@@H](C)NC(=O)CC(C)C(F)(F)F)cc2[nH]1)C1CCC(F)(F)CC1 (single isomer, unassigned) [Example 139] | IL-17A : IL-17RA binding (Homo sapiens, UniProt Q16552, K93Q) | < 7.00 |

query: Tell me the measured pIC50 of C[C@@H](NC(=O)CCC(F)(F)F)c1ccc2[nH]c([C@@H](NC(=O)C34CC(C3)C4)C3CCC(F)(F)CC3)nc2c1 , please.
result: < 7.00

query: Tell me the measured pIC50 of COCCn1nncc1C(=O)N[C@H](c1nc2cc([C@@H](C)NC(=O)CCC(F)(F)F)ccc2[nH]1)C1CCC(F)(F)CC1 , please.
result: < 7.00

query: Tell me the measured pIC50 of CCn1nccc1C(=O)N[C@H](c1nc2cc([C@@H](C)NC(=O)CC(C(F)(F)F)C(F)(F)F)ccc2[nH]1)C1CCC(F)(F)CC1 , please.
result: 7.00 to 7.30

query: Tell me the measured pIC50 of CC(C)n1nccc1C(=O)N[C@@H](CC(C)(C)C(F)F)c1nc2ccc([C@H](NC(=O)CC3CC(F)(F)C3)C3CC3)cc2[nH]1 , please.
result: 7.00 to 7.30

query: Tell me the measured pIC50 of C[C@@H](NC(=O)CCC(F)(F)F)c1ccc2[nH]c([C@@H](NC(=O)c3ncn(C)n3)C3CCC(F)(F)CC3)nc2c1 , please.
result: < 7.00

query: Tell me the measured pIC50 of C[C@@H](NC(=O)CCC(F)(F)F)c1ccc2[nH]c([C@@H](NC(=O)c3cnnn3CC(F)F)C3CCC(F)(F)CC3)nc2c1 , please.
result: < 7.00

query: Tell me the measured pIC50 of Cc1nonc1C(=O)N[C@H](c1nc2ccc([C@H](NC(=O)CC3CC(F)(F)C3)C3CC3)cc2[nH]1)C1CCOC(C)(C)C1 (single isomer, unassigned) [Example 173] , please.
result: < 7.00
